Condition Summary: 318.15 K; 101.33 kPa; Liquid
Value Type: mass density (kg/m3)

>>> df
                            compound    value_type  experimental_value
0    CCCOC(=O)CC [propyl propanoate]  mass density              854.57
1      CCOC(=O)CC [ethyl propanoate]  mass density              860.98
2  CCCCCOC(=O)CC [pentyl propanoate]  mass density              848.98
3    CCCCOC(=O)CC [butyl propanoate]  mass density              851.33
4      CCC(=O)OC [methyl propanoate]  mass density               884.6

---

Assay Name: refractive index (Na D-line) (dimensionless)
Condition Summary: 318.15 K; 101.33 kPa; Liquid; Standard Abbe refractometry
Value Type: refractive index

In [3]: df
Out[3]:
                          molecule  experimental_value
0    CCC(=O)OC [methyl propanoate]              1.3641
1    CCOC(=O)CC [ethyl propanoate]              1.3711
2  CCCCOC(=O)CC [butyl propanoate]              1.3895
3  CCCOC(=O)CC [propyl propanoate]              1.3809
